B1: TPR 5TU (parent)
chain: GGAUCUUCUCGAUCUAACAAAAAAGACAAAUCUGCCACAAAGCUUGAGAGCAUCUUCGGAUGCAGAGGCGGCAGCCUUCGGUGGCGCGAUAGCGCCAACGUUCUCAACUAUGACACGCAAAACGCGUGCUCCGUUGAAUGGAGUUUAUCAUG

Variants of: B1
Experiment: polymerase ribozyme fitness, log enrichment relative to wild type (log ratio); higher = more active; in vitro selection for triplet polymerase activity
Variants at the floor of the assay were thinned out.

Mutation Key | polymerase ribozyme fitness (log ratio)
A3U A29G A49C G92A G124U G140A | ≤ -4.2
U6C A41G U56G G59A U61G C76A A91C C95G G124A | ≤ -4.2
A23U C85G G141A | ≤ -4.2
C96A A98U | -0.335
A3G A17C G143C | -2.6
A122U C149U | -0.616
C85U G86U C93U U130A A138U | ≤ -4.2
A24U C51U G59C G83A G84U C131U | -3.74
C95U G100U U104G C114U G141C A150C | ≤ -4.2
U4G A16C A28U C38U U55A C75G U111C A122U A142C | ≤ -4.2
A12U U56A | -0.683
C87U U148A | -3.62
G86U A107G G143C U151A | ≤ -4.2
C27G C38U A39G A73C G94U U146C G152U | ≤ -4.2
U15C A19C C85U C87U | 0.246
U77G G86U C93G C96A C118G U145G | ≤ -4.2
C38U C54U C57A G84A C118U | -1.06
A23U C35A A41C U55G G86C C95G C105A | ≤ -4.2
U33C G81U C93G G143U | -4.06
G65U G94A | ≤ -4.2
G81A C131G G140C | -4
A41G G88A G143A | ≤ -4.2
U15A A49U A73G U82G A107U | ≤ -4.2
A37U A52G C76A C96U C131G | ≤ -4.2
U13C A21C | 0.934
A66C G71A A73G G83C U151A | ≤ -4.2
G11C C57U C95U U127A C149A | ≤ -4.2
U78C C85U C103A G141U G152U | ≤ -4.2
U55A G71C A106U C125A | ≤ -4.2
U13G A20C U55G U90G C95G C105A C116G G124A | ≤ -4.2
U53A G59C C85U U135A | -0.238
C8G G34U A73C C85G U148G | ≤ -4.2
G92A U104A A106C C108A | ≤ -4.2
A16U A17G G59C U77G G94U | -3.85
U13A C51U C54A G86U C116U A120G | ≤ -4.2
C69G C85U A91G C118A C129G U144A | ≤ -4.2
A3U C36A G42C C87A A89G G100C | ≤ -4.2
U9G C18G A30U C35G C87G A147G | ≤ -4.2
A89C C125A | -1.13
A19U A20C G59A A89U C95U G126C | -0.274
C32A C87A C93U | ≤ -4.2
A23U C125A | -3.51
A49C G59A A60G A106G | ≤ -4.2
C99G C114U | -2.38
G126C | 1.28
A91C G152U | ≤ -4.2
